# conditions_used: 298.15 K; 101.33 kPa; Liquid
The entries below are paired with their reported mass density.

[
  {
    "smiles": "CCCCCCC",
    "mass density, kg/m3": 679.55
  },
  {
    "smiles": "CCCCCCCCO",
    "mass density, kg/m3": 821.64
  },
  {
    "smiles": "CCCCCCO",
    "mass density, kg/m3": 815.23
  },
  {
    "smiles": "CCCCO",
    "mass density, kg/m3": 805.72
  }
]

====

The entries below are paired with their reported mass density.
# conditions_used: 303.15 K; 101.33 kPa; Liquid

[
  {
    "smiles": "CCCCCCC",
    "mass density (kg/m3)": 675.3
  },
  {
    "smiles": "CCCCCCCCO",
    "mass density (kg/m3)": 818.19
  },
  {
    "smiles": "CCCCO",
    "mass density (kg/m3)": 801.91
  },
  {
    "smiles": "CCCCCCO",
    "mass density (kg/m3)": 811.6
  }
]

====

# conditions_used: 298.15 K

[
  {
    "molecule": "CCCCO [butan-1-ol]",
    "surface tension liquid-gas / mN/m": 23.79
  },
  {
    "molecule": "CCCCCCCCO [octan-1-ol]",
    "surface tension liquid-gas / mN/m": 26.52
  },
  {
    "molecule": "CCCCCCC [heptane]",
    "surface tension liquid-gas / mN/m": 19.68
  },
  {
    "molecule": "CCCCCCO [hexan-1-ol]",
    "surface tension liquid-gas / mN/m": 25.19
  }
]

====

# conditions_used: 293.15 K; 101.33 kPa; Liquid
± gives the expanded uncertainty stated by the source.
endpoint_name: mass density

[
  {
    "smiles": "CCCCCCCCO",
    "endpoint_name": "mass density",
    "result": "825.11 ± 0.45 kg/m3"
  },
  {
    "smiles": "CCCCO",
    "endpoint_name": "mass density",
    "result": "809.56 ± 0.23 kg/m3"
  },
  {
    "smiles": "CCCCCCO",
    "endpoint_name": "mass density",
    "result": "818.75 ± 0.92 kg/m3"
  },
  {
    "smiles": "CCCCCCC",
    "endpoint_name": "mass density",
    "result": "683.78 ± 0.65 kg/m3"
  }
]
